# Assay overview: Blood-brain barrier permeability test in rat
# Format: in vivo
# Test conditions: brain homogenate / blood supernatant after centrifugation, intravenous, SD rats, 5 mg/kg tail vein, 20 min after administration, LC-MS/MS, >0.3 indicates good blood-brain barrier penetration, read-out: brain/blood ratio
Metric: Kp at 20 min

Example results:
{"Mol smiles": "CN(C)c1ncc(/C=C/c2nc3cc(OCCF)ccc3n(Cc3ccccn3)c2=O)s1", "Measurement": "≥ 1"}
{"Mol smiles": "CN(C)c1ccc(/C=C/c2nc3cc(OCCF)ccc3n(Cc3ccccn3)c2=O)cc1", "Measurement": "≥ 1"}

# ---- query compound ----
[ask] Which Kp at 20 min is reported for this compound? `CN(C)c1ccc(/C=C/c2nc3cc(OCCF)ccc3n(Cc3ccncc3)c2=O)cc1`
[reply] ≥ 1

====

# Subject of test: human α-synuclein aggregates (Homo sapiens, UniProt P37840)
# Construct: made in house; host or cells: E. coli BL21 (DE3)
# Assay overview: Binding affinity of the compounds to α-synuclein aggregates (fluorescence method)
# Test conditions: fluorescence saturation binding; α-synuclein aggregates (PFFs) 3 μM; room temperature, 1 hour
Metric: Kd

Example results:
{"Mol smiles": "CN(C)c1ncc(/C=C/c2nc3cc(OCCF)ccc3n(Cc3ccccn3)c2=O)s1", "Kd": "0.1 to 0.2 µM"}
{"Mol smiles": "CN(C)c1ccc(/C=C/c2nc3cc(OCCF)ccc3n(Cc3cccnc3)c2=O)cc1", "Kd": "0.5 to 1 µM"}
{"Mol smiles": "CN(C)c1ccc(/C=C/c2nc3cc(F)ccc3n(Cc3ccncc3)c2=O)cc1", "Kd": "0.5 to 1 µM"}
{"Mol smiles": "CN(C)c1ccc(/C=C/c2nc3cc(F)ccc3n(Cc3ccccn3)c2=O)cc1", "Kd": "0.1 to 0.2 µM"}
{"Mol smiles": "CN(C)c1ccc(/C=C/c2nc3cc(F)ccc3n(Cc3cccnc3)c2=O)cc1", "Kd": "0.5 to 1 µM"}

[ask] Which Kd is reported for this molecule? `CN(C)c1ccc(/C=C/c2nc3cc(OCCF)ccc3n(Cc3ccncc3)c2=O)cc1`
[reply] 0.2 to 0.5 µM

[ask] Which Kd is reported for this molecule? `CN(C)c1ccc(/C=C/c2nc3cc(OCCF)ccc3n(Cc3ccccn3)c2=O)cc1`
[reply] 0.2 to 0.5 µM
